system: MS2 coat protein; assay: apparent KD of MS2 coat protein; designed switch direction (-1 OFF switch, 1 ON switch): 1; higher = weaker reporter binding; conditions: input ligand: microRNA oligo, concentration not stated
Note to self: values exactly at 50 nM are 1 (yes). So apparent KD of MS2 coat protein at or above 50 nM is 1 (yes), below is 0 (no).

primary sequence: AAUUAAGAUCAAGGAUAUCACGUCGAUUAGACGUGAGAAGGUGAUAAUUACAUGAGGAUCACCCAUGUAUAACAUGAAUUAAUU [SSNG1/9-B2] (Eterna round: R96, puzzle: Same State NG 1)
target under test: MS2 coat protein
assigned label: 0 (no)
//
primary sequence: AUUAUGUAUGCAGGAUAUGAUUAACAUGAGGAUCACCCAUGUGGUGUUGUGAGUAAGGAGAGUGAUCAGAAGGGCAUUUUUUUU [JMF's solution 64] (Eterna round: R96, puzzle: Same State NG 2)
target under test: MS2 coat protein
assigned label: 1 (yes)
//
primary sequence: GCUCGACGUAUUGUCUACAUGAGGAUCACCCAUGUAGGUGCGAAGGAUAUCUACGUGUUUCAUGUAGAGAAGGUCGUGUCGAGC [SameState NG3 #93] (Eterna round: R96, puzzle: Same State NG 3)
target under test: MS2 coat protein
assigned label: 0 (no)

Does the reported apparent KD of MS2 coat protein for UUGCUCGUGUGAGGAUAUGCCGCCGUUUCGGCUGCAGAAGGUACUCUGUUACAUGAGGAUCACCCAUGUCUCUGUUGUUUCGUG [salish99_SSNG1_r04_939] (Eterna round: R96, puzzle: Same State NG 1) fall at or above the 50 nM mark?
0 (no)

Also check UUGCUCGUGUAAGGAUAUGCAGCCGUUUCGGCUGCAGAAGGUACUAUAAUACAUGAGGAUCACCCAUGUCUCUAUUAUUUAGUG [salish99_SSNG1_r04_925] (Eterna round: R96, puzzle: Same State NG 1)
0 (no)

Also check UCAAUCAUGUAAGGAUAUGCAGCCGAAACGGCUGCAGAAGGUACUAUAAUUACAUGAGGAUCACCCAUGUUAUAAAAUUAAAAU [Mat - Same State NG 1 - JL mod - D69] (Eterna round: R96, puzzle: Same State NG 1)
1 (yes)

Also check GGUAGGUUACUACCAAACAUGAGGAUCACCCAUGUAAGUGGGAAGGAUAUGGUACCGUUUCGGUACCAGAAGGUCCAUAUAGUA [JL Fiskers NG3ss - 2 mod 11] (Eterna round: R96, puzzle: Same State NG 3)
1 (yes)

Also check GCUCGGCUGAUGGCCCACAUGAGGAUCACCCAUGUGACUGGGCAGGAUAUCUAGAUUCAGGAUGUAGAGAAGGGCCUGCCGAGC [SameState NG3 #40] (Eterna round: R96, puzzle: Same State NG 3)
1 (yes)

Also check AUAGUUUCCGAAGGAUAUGAUGAGGAUCACCCAUCAGAAGGUUGGCUAUUGGGCGGACAUGAGGAUCACCCAUGUCUUUCUGUU (Eterna round: R96, puzzle: Same State NG 1)
0 (no)
